Target: Sigma 2 receptor
Experiment: Binding affinity towards sigma receptor binding site 2 using [3H]DTG of whole rat brain homogenates except cerebellum
observable: IC50 (nM)
Just the number in nM, nothing appended.

What value of measured IC50 is listed for `c1ccc2c(c1)COC21CCN(CCCCc2cn(-c3ccncc3)c3ccccc23)CC1` ?
0.41

Quick one: IC50 of `Cn1cc(CCCCN2CCC3(CC2)OCc2ccccc23)c2ccccc21` ?
0.3

For `c1ccc(C2CCN(CCCCc3c[nH]c4ccccc34)CC2)cc1` , what is its reported IC50?
0.48

Consider the record given below.
Reported IC50 for `c1ccc2c(c1)COC21CCN(CCCCc2cn(-c3nccs3)c3ccccc23)CC1` : what is it?
0.19
